test: in vivo; conditions: dog, po, 50 mg/kg
Recorded Endpoint: Cmax (µg/mL)
State the answer as a number, implicitly in µg/mL.

Prompt: Requested read-out: Cmax. Entry: OC1C(O)C(O)C(O)C(O)C1O (stereo not shown)
Response: 59.4

###

assay: clinical; settings: male, human, in vivo, po, 2000 mg
Recorded Endpoint: AUC(0-t) (µg·h/mL)
State the answer as a number, implicitly in µg·h/mL.

Prompt: Requested read-out: AUC(0-t). Entry: OC1C(O)C(O)C(O)C(O)C1O (stereo not shown)
Response: 194

###

experiment: Single oral and intravenous dose pharmacokinetics, dose range-finding study in beagle dogs; format: in vivo, beagle dog; settings: beagle, dog, plasma, po, 80 mg/kg, dogs, single oral dose 80 mg/kg
Recorded Endpoint: Tmax
A complete answer gives the number followed by the unit.

Prompt: Requested read-out: Tmax. Entry: OC1C(O)C(O)C(O)C(O)C1O (stereo not shown)
Response: 2 h
